# Measured target: T1, human PVRIG-mFc protein (Acro, PVG-H5253) (human, UniProt Q6DKI7 41-171, limits assumed)
# T1 construct: extracellular domain; Bought protein; also called PVRIG-ECD-mFc; not shown: mouse Fc tag of the bought protein
# T1 sequence (looked up): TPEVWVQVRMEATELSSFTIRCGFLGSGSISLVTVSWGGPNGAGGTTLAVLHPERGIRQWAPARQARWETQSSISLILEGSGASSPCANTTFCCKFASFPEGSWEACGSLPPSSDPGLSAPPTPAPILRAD
# Protocol description: FACS blocking of PVRIG-mFc binding to CHO-K1-CD112 cells; competitor CD112

{"columns": ["Binder", "Unit label", "% IC50 to COM701-hIgG4"],
 "data": [
  ["PVRIG-A118-H5 (Fc fusion, VHH-human IgG1 Fc format is stated for the parental VHH antibodies; not restated for the humanized variants; also called A118.VH5; not shown: human IgG1 hinge-CH2-CH3 (Fc)) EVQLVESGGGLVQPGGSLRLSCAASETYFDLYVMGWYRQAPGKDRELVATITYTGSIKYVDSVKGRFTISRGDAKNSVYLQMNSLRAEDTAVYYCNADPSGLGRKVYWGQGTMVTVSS", "%", 144],
  ["PVRIG-A105-H4 (Fc fusion, VHH-human IgG1 Fc format is stated for the parental VHH antibodies; not restated for the humanized variants; also called A105.VH4; not shown: human IgG1 hinge-CH2-CH3 (Fc)) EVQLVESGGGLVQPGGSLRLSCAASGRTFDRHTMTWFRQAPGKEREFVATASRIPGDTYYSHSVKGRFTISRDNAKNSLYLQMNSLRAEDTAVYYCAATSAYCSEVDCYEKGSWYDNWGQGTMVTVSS", "%", 110],
  ["PVRIG-A50-H1e (Fc fusion, VHH-human IgG1 Fc format is stated for the parental VHH antibodies; not restated for the humanized variants; also called VH1e; not shown: human IgG1 hinge-CH2-CH3 (Fc)) EVQLVESGGGLVQPGGSLRLSCAASGFTFSYYDMSWVRQAPGKGLEWVSTINSNAGRTSYVDSVKGRFTISRDNSKNTLYLQMNSLRAEDTAVYYCVEGDPHNFGLESLSLRDFGSWGQGTMVTVSS", "%", 130],
  ["PVRIG-A105 (Fc fusion, Alpaca VHH expressed as VHH-hinge-CH2-CH3 of human IgG1; not shown: human IgG1 hinge-CH2-CH3 (Fc)) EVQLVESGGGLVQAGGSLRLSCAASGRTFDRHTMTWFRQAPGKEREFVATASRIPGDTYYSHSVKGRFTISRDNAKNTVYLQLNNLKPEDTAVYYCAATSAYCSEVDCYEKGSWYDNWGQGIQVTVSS", "%", 104]
]}

Source of measurements: patent US20240343803A1
